# measured target: human orexin-1 receptor (hOX1R) (Homo sapiens, UniProt O43613)
# Sequence (O43613 whole entry): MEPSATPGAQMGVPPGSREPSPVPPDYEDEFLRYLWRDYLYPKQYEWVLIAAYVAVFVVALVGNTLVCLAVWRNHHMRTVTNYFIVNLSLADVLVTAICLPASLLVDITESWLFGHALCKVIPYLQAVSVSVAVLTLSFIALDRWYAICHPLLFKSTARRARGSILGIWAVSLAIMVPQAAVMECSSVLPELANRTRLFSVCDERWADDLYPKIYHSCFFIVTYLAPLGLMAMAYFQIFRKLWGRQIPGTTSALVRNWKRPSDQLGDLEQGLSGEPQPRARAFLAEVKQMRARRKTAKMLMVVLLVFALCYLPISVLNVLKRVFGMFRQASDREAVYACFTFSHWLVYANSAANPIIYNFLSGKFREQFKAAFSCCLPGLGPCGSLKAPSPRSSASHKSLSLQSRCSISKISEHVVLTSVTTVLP
# assay: Measurement of orexin antagonistic activity (intracellular Ca2+ fluorescence, FDSS) on hOX1R
# conditions used: CHO cells forcibly expressing hOX1R; Fluo-4AM; ligand peptide (substituted human orexin-A) 300 pM; compound preincubated 30 minutes; read-out: IC50 Value OX1
Recorded measurements of pIC50, one per entry
Note on pIC50: it is the negative log10 of concentration, concentration in mol/L.

Known pIC50 results, listed for orientation:
compound	pIC50
CCN(C(=O)c1ccccc1-n1nccn1)[C@@H](C)Cn1nnc(-c2ccc(F)cc2)n1 [Example 67]	8.74
CCN(C(=O)c1cc(C)ccc1-c1ncccn1)[C@@H](C)Cn1nnc(-c2ccc(F)cn2)n1 [Example 88]	7.87
CCN(C(=O)c1cc(C)ccc1-n1nccn1)[C@@H](C)Cn1cc(-c2ccccc2)nn1 [Example 95]	9.22
CCN(C(=O)c1ccccc1-n1nccn1)[C@@H](C)Cc1noc(-c2ccc(F)cn2)n1 [Example 56]	8.30
Cc1ccc(-c2ncccn2)c(C(=O)N(C)[C@@H](C)Cc2noc(-c3ccc(F)cc3)n2)c1 [Example 60]	8.89

Request: Notebook entry, human orexin-1 receptor (hOX1R) (Homo sapiens, UniProt O43613) assay: pIC50 of CCN(C(=O)c1cc(F)ccc1-c1ncccn1)[C@@H](C)Cn1cc(-c2ccc(F)cn2)cn1 [Example 34] = ?
Response: 8.01

Request: // fetch human orexin-1 receptor (hOX1R) (Homo sapiens, UniProt O43613) pIC50 for C[C@@H](Cn1ccc(-c2ccc(F)cn2)n1)N(C)C(=O)c1ccccc1-n1nccn1 [Example 20]
Response: 8.47

Request: Record lookup: for human orexin-1 receptor (hOX1R) (Homo sapiens, UniProt O43613), what pIC50 belongs to CCN(C(=O)c1ccccc1-c1ncccn1)[C@@H](C)Cc1noc(-c2ccc(F)cc2)n1 [Example 54] ?
Response: 8.70

* * *

# measured target: orexin-2 receptor (hOX2R) (Homo sapiens, UniProt O43614)
# Sequence (O43614 whole entry): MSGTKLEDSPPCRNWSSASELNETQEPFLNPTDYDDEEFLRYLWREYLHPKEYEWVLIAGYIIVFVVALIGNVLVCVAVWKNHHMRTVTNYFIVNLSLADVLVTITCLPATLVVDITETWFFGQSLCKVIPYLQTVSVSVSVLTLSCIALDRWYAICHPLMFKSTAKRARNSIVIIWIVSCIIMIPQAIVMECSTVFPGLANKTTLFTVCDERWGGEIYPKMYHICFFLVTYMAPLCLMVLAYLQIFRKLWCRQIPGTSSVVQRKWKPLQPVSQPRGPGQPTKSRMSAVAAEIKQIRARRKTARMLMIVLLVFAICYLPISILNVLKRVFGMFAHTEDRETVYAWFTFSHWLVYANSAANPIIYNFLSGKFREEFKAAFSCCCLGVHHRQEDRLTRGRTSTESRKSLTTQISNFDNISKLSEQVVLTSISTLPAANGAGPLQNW
# assay: Measurement of orexin antagonistic activity (intracellular Ca2+ fluorescence, FDSS) on hOX2R
# conditions used: CHO cells forcibly expressing hOX2R; Fluo-4AM; ligand peptide (substituted human orexin-A) 3 nM; compound preincubated 30 minutes; read-out: IC50 Value OX2
observed property: pIC50
Conceptually, pIC50 converts a concentration in mol/L into minus its log10.

CCN(C(=O)c1cc(C)ccc1-n1nccn1)[C@@H](C)Cn1cc(-c2ccc(F)cn2)nn1 7.88
CCN(C(=O)c1nc(C)ccc1-n1nccn1)[C@@H](C)Cn1cc(-c2ccc(F)cn2)nn1 5.84
CCN(C(=O)c1cc(C)ccc1-n1nccn1)[C@@H](C)Cc1noc(-c2ccc(F)cn2)n1 8.02

Here is another molecule to look at.
Request: Consider the molecule `CCN(C(=O)c1cc(F)ccc1-n1nccn1)[C@@H](C)Cn1cc(-c2ccc(F)cn2)nn1` and give its measured pIC50.
Response: 6.23

* * *

# measured target: orexin-2 receptor (hOX2R) (Homo sapiens)
# Construct: expressed in transfected cells; host or cells: Chinese hamster ovary (CHO) cells
# assay: Measurement of orexin antagonistic activity (intracellular Ca2+ fluorescence, FDSS) on hOX2R
# Format: cell-based
# conditions used: CHO cells forcibly expressing hOX2R; Fluo-4AM; ligand peptide (substituted human orexin-A) 3 nM; compound preincubated 30 minutes; read-out: IC50 Value OX2
# Method: The antagonistic activities of the test compounds on human orexin-1 receptor (hOX1R) and orexin-2 receptor (hOX2R) were measured by modifying from the method described in literature (Toshikatsu Okumura et al., Biochemical and Biophysical Research Communications, 280, 976-981, 2001). […]
pIC50: −log10 of the molar value.
Think of 7 as a floor: if pIC50 stands on it or above, it is Yes; beneath it, No.

Before answering, review these 3 worked examples.
CCN(C(=O)c1ccccc1-c1ncccn1)[C@@H](C)Cn1ccc(-c2ccc(F)cn2)n1 Yes
CCN(C(=O)c1cc(C)ccc1-c1ncccn1)[C@@H](C)Cc1noc(-c2ccc(F)cn2)n1 Yes
Cc1ccc(-n2nccn2)c(C(=O)N(CCC#N)[C@@H](C)Cn2cc(-c3ccc(F)cc3)nn2)c1 No

Request: Does the compound `Cc1ccc(-n2nccn2)c(C(=O)N(CCS(C)(=O)=O)[C@@H](C)Cn2cc(-c3ccc(F)cc3)nn2)c1` have recorded pIC50 that is 7 or more?
Response: No

Request: Determine whether this compound has pIC50 no lower than 7: `CCN(C(=O)c1nc(C)ccc1-c1ncccn1)[C@@H](C)Cn1cc(-c2ccc(F)cn2)nn1`
Response: No
